Test system: formation of NO, measured as NO2− (nitrites)
assay_protocol: Inhibition of NO (nitrite) formation in rabbit joint chondrocytes stimulated by IL-1β
Type: cell-based
particulars: Oryctolagus cuniculus, Chondrocyte, IL-1β 1 ng/ml, 48 hours, NO determined as nitrites
Experimental: a) The activity in inhibiting the formation of NO, measured as NO2^− (nitrites), PGE2, and neutral protease, was investigated in vitro on culture broths of rabbit joint chondrocytes stimulated by cytokine IL-1β (1 ng/ml) for 48 hours. For the preparation of the chondrocytes, the method described by Berenbaum et al [FEBS Letters 340, 51-55 (1994)] was followed. […]
// reported pIC50 for each item listed
Hey, just a heads up that pIC50 is the negative log base 10 of the concentration in molar.

compound: CCCCCCCNC(=S)Nc1ccc(NC(C)=N)cc1 [Compound I-6]
reading: 4.52

Now examine the next entry.
(Q) Give pIC50; test system formation of NO, measured as NO2− (nitrites); compound CCCCCNC(=S)Nc1ccc(NC(C)=N)cc1 [Compound I-4]
(A) 5.18
